Can you tell me viability at 28.5 h, 10 µM for the items I'm about to list?
Assay: in vitro
Settings: human, hela cells, % viability
Numbers only, in %.

The following compounds have reported results that may help.
CCCC1CCN(c2ncnc(Oc3ccc(C(=O)c4ccc(F)cc4)cc3)c2[N+](=O)[O-])CC1 : 85
CCOC(=O)C1CCN(C(=O)c2cnn3c(C)c(Cc4cccc(Cl)c4)c(C)nc23)CC1 : 92.5
CC(C)[C@H](CO)Nc1nc(-c2ccc(S(C)(=O)=O)cc2)cnc1N : 110

For every item below, please supply its viability at 28.5 h, 10 µM.
1. CCOC(=O)c1ccc(N2C(=O)CC(N3CCN(c4ncccn4)CC3)C2=O)cc1 (centres unmarked)
2. Cn1c(C(=O)NCCN2CCOCC2)cc2oc(-c3ccccc3)nc2c1=O [CBK056726T]

[105, 87.8]
